Values were extracted from ChEMBL document CHEMBL3124870.

- Assay comment: Aqueous solubility of compound in phosphate buffer assessed as solubility limit after 2 hrs by turbidity analysis
- Format: physicochemical
Observation type: solubility kinetic at 2 h (µM)

[[record]]
smiles_record = "COC(=O)[C@H]1[C@H]2C[C@@H]3c4[nH]c5cc(OC)ccc5c4CCN3C[C@H]2C[C@@H](OC(=O)c2cc(OC)c(OC)c(OC)c2)[C@@H]1OC"
observation_type = "solubility kinetic at 2 h"
observed = 31.3

[[record]]
smiles_record = "CCCCc1ccc(-c2nc(C)c(/C(C)=N/NC(=N)N)s2)cc1"
observation_type = "solubility kinetic at 2 h"
observed = 62.6


----------
- Test system: Staphylococcus aureus
- Assay comment: Antibacterial activity against methicillin-resistant Staphylococcus aureus USA1000 assessed as inhibition of visible growth by broth microdilution method
- Type: functional
Consider the cut-off 1 µg/mL. If the recorded MIC is strictly smaller, the label is YES; if not, the label is NO.

[[record]]
smiles_record = "C/C(=N\\NC(=N)N)c1sc(-c2ccc(-c3ccccc3)cc2)nc1C"
qualitative_label = "YES"

[[record]]
smiles_record = "CCCCc1ccc(-c2nc(C)c(/C(C)=N/NC(=N)N)s2)cc1"
qualitative_label = "NO"

[[record]]
smiles_record = "CCCc1ccc(-c2nc(C)c(/C(C)=N/NC(=N)N)s2)cc1"
qualitative_label = "NO"

[[record]]
smiles_record = "C/C(=N\\NC(=N)N)c1sc(-c2ccc(C3CCCCC3)cc2)nc1C"
qualitative_label = "YES"

[[record]]
smiles_record = "C/C(=N\\NC(=N)N)c1sc(-c2ccc(C3=CCCCC3)cc2)nc1C"
qualitative_label = "YES"

[[record]]
smiles_record = "CCCCCCCc1ccc(-c2nc(C)c(/C(C)=N/NC(=N)N)s2)cc1"
qualitative_label = "NO"


----------
- Tested on: Staphylococcus aureus
- Assay comment: Antibacterial activity against methicillin-resistant Staphylococcus aureus USA300 assessed as inhibition of visible growth by broth microdilution method
- Format: functional
MIC values, listed per item
Observation type: MIC (µg/mL)

[[record]]
smiles_record = "C/C(=N\\NC(=N)N)c1sc(-c2ccc(C3CCCCC3)cc2)nc1C"
unit_label = "µg/mL"
observed = 0.7

[[record]]
smiles_record = "C/C(=N\\NC(=N)N)c1sc(-c2ccc(-c3ccccc3)cc2)nc1C"
unit_label = "µg/mL"
observed = 1

[[record]]
smiles_record = "C/C(=N\\NC(=N)N)c1sc(-c2ccc(C3=CCCCC3)cc2)nc1C"
unit_label = "µg/mL"
observed = 1.2

[[record]]
smiles_record = "CCCc1ccc(-c2nc(C)c(/C(C)=N/NC(=N)N)s2)cc1"
unit_label = "µg/mL"
observed = 1.2

[[record]]
smiles_record = "CCCCc1ccc(-c2nc(C)c(/C(C)=N/NC(=N)N)s2)cc1"
unit_label = "µg/mL"
observed = 1.4

[[record]]
smiles_record = "CCCCCCCc1ccc(-c2nc(C)c(/C(C)=N/NC(=N)N)s2)cc1"
unit_label = "µg/mL"
observed = 2.5

[[record]]
smiles_record = "C/C(=N\\NC(=N)N)c1sc(-c2ccc(C(C)(C)C)cc2)nc1C"
unit_label = "µg/mL"
observed = 1.3


----------
MIC values, listed per item
- Tested on: Staphylococcus aureus
- Assay comment: Antibacterial activity against vancomycin-intermediate Staphylococcus aureus HIP07256 assessed as inhibition of visible growth by broth microdilution method
- Assay type: functional
Observation type: MIC (µg/mL)

[[record]]
smiles_record = "CCCCCCCc1ccc(-c2nc(C)c(/C(C)=N/NC(=N)N)s2)cc1"
unit_label = "µg/mL"
observed = 1.5

[[record]]
smiles_record = "C/C(=N\\NC(=N)N)c1sc(-c2ccc(C3CCCCC3)cc2)nc1C"
unit_label = "µg/mL"
observed = 0.7

[[record]]
smiles_record = "C/C(=N\\NC(=N)N)c1sc(-c2ccc3ccccc3c2)nc1C"
unit_label = "µg/mL"
observed = 2.6

[[record]]
smiles_record = "CCCCc1ccc(-c2nc(C)c(/C(C)=N/NC(=N)N)s2)cc1"
unit_label = "µg/mL"
observed = 1.4

[[record]]
smiles_record = "C/C(=N\\NC(=N)N)c1sc(-c2ccc(C3=CCCCC3)cc2)nc1C"
unit_label = "µg/mL"
observed = 0.8

[[record]]
smiles_record = "C/C(=N\\NC(=N)N)c1sc(-c2ccc(C(C)(C)C)cc2)nc1C"
unit_label = "µg/mL"
observed = 1.9

[[record]]
smiles_record = "CCCCCc1ccc(-c2nc(C)c(/C(C)=N/NC(=N)N)s2)cc1"
unit_label = "µg/mL"
observed = 0.7

[[record]]
smiles_record = "C/C(=N\\NC(=N)N)c1sc(-c2ccc(-c3ccccc3)cc2)nc1C"
unit_label = "µg/mL"
observed = 0.5

[[record]]
smiles_record = "CCCCCCCCCc1ccc(-c2nc(C)c(/C(C)=N/NC(=N)N)s2)cc1"
unit_label = "µg/mL"
observed = 2.9

[[record]]
smiles_record = "CCCc1ccc(-c2nc(C)c(/C(C)=N/NC(=N)N)s2)cc1"
unit_label = "µg/mL"
observed = 1.9


----------
- Test system: Staphylococcus aureus
- Assay comment: Antibacterial activity against methicillin-resistant Staphylococcus aureus USA100 assessed as inhibition of visible growth by broth microdilution method
- Assay type: functional
MIC values, listed per item
Observation type: MIC (µg/mL)

[[record]]
smiles_record = "CCCCCCCc1ccc(-c2nc(C)c(/C(C)=N/NC(=N)N)s2)cc1"
observed = 3

[[record]]
smiles_record = "C/C(=N\\NC(=N)N)c1sc(-c2ccc(C3CCCCC3)cc2)nc1C"
observed = 0.7

[[record]]
smiles_record = "C/C(=N\\NC(=N)N)c1sc(-c2ccc(C3=CCCCC3)cc2)nc1C"
observed = 1

[[record]]
smiles_record = "CCCc1ccc(-c2nc(C)c(/C(C)=N/NC(=N)N)s2)cc1"
observed = 1.6

[[record]]
smiles_record = "C/C(=N\\NC(=N)N)c1sc(-c2ccc(-c3ccccc3)cc2)nc1C"
observed = 2

[[record]]
smiles_record = "CCCCc1ccc(-c2nc(C)c(/C(C)=N/NC(=N)N)s2)cc1"
observed = 5.5

[[record]]
smiles_record = "C/C(=N\\NC(=N)N)c1sc(-c2ccc(C(C)(C)C)cc2)nc1C"
observed = 1.3


----------
MIC values, listed per item
- System: Staphylococcus aureus
- Assay comment: Antibacterial activity against methicillin-resistant Staphylococcus aureus USA400 assessed as inhibition of visible growth by broth microdilution method
- Assay type: functional
Observation type: MIC

[[record]]
smiles_record = "CCCc1ccc(-c2nc(C)c(/C(C)=N/NC(=N)N)s2)cc1"
tested_target = "Staphylococcus aureus"
observed = "1.2 µg/mL"

[[record]]
smiles_record = "C/C(=N\\NC(=N)N)c1sc(-c2ccc(C3CCCCC3)cc2)nc1C"
tested_target = "Staphylococcus aureus"
observed = "0.7 µg/mL"

[[record]]
smiles_record = "C/C(=N\\NC(=N)N)c1sc(-c2ccc(C(C)(C)C)cc2)nc1C"
tested_target = "Staphylococcus aureus"
observed = "1.9 µg/mL"

[[record]]
smiles_record = "CCCCc1ccc(-c2nc(C)c(/C(C)=N/NC(=N)N)s2)cc1"
tested_target = "Staphylococcus aureus"
observed = "1.4 µg/mL"

[[record]]
smiles_record = "CCCCCCCc1ccc(-c2nc(C)c(/C(C)=N/NC(=N)N)s2)cc1"
tested_target = "Staphylococcus aureus"
observed = "1.5 µg/mL"

[[record]]
smiles_record = "CCCCCCCCCc1ccc(-c2nc(C)c(/C(C)=N/NC(=N)N)s2)cc1"
tested_target = "Staphylococcus aureus"
observed = "4.4 µg/mL"

[[record]]
smiles_record = "C/C(=N\\NC(=N)N)c1sc(-c2ccc(-c3ccccc3)cc2)nc1C"
tested_target = "Staphylococcus aureus"
observed = "0.8 µg/mL"

[[record]]
smiles_record = "CCCCCc1ccc(-c2nc(C)c(/C(C)=N/NC(=N)N)s2)cc1"
tested_target = "Staphylococcus aureus"
observed = "0.9 µg/mL"


----------
- Tested on: Staphylococcus aureus
- Assay comment: Antibacterial activity against methicillin-resistant Staphylococcus aureus USA800 assessed as inhibition of visible growth by broth microdilution method
- Assay type: functional
MIC values, listed per item
Observation type: MIC (µg/mL)

[[record]]
smiles_record = "C/C(=N\\NC(=N)N)c1sc(-c2ccc(C3CCCCC3)cc2)nc1C"
observation_type = "MIC"
observed = 0.7

[[record]]
smiles_record = "C/C(=N\\NC(=N)N)c1sc(-c2ccc(C(C)(C)C)cc2)nc1C"
observation_type = "MIC"
observed = 1.3

[[record]]
smiles_record = "CCCCCc1ccc(-c2nc(C)c(/C(C)=N/NC(=N)N)s2)cc1"
observation_type = "MIC"
observed = 0.7

[[record]]
smiles_record = "CCCCc1ccc(-c2nc(C)c(/C(C)=N/NC(=N)N)s2)cc1"
observation_type = "MIC"
observed = 2.3

[[record]]
smiles_record = "C/C(=N\\NC(=N)N)c1sc(-c2ccc(-c3ccccc3)cc2)nc1C"
observation_type = "MIC"
observed = 1.2

[[record]]
smiles_record = "CCCCCCCc1ccc(-c2nc(C)c(/C(C)=N/NC(=N)N)s2)cc1"
observation_type = "MIC"
observed = 1.5

[[record]]
smiles_record = "C/C(=N\\NC(=N)N)c1sc(-c2ccc(C3=CCCCC3)cc2)nc1C"
observation_type = "MIC"
observed = 0.8

[[record]]
smiles_record = "CCCc1ccc(-c2nc(C)c(/C(C)=N/NC(=N)N)s2)cc1"
observation_type = "MIC"
observed = 1.9

[[record]]
smiles_record = "CCCCCCCCCc1ccc(-c2nc(C)c(/C(C)=N/NC(=N)N)s2)cc1"
observation_type = "MIC"
observed = 1.8

